Where do these numbers come from? They come from patent US10144706B2.

target: PD-1/PD-L1 interaction (PD-1-Ig / PD-L1-His) (Homo sapiens); construct: hPDL1(18-239)-TVMV-His; TVMV protease site linker (C); made in house; host or cells: HEK293T; assay: PD-1/PD-L1 Homogenous Time-Resolved Fluorescence (HTRF) binding assay; settings: numeric IC50; PD-L1-His 10 nM, PD-1-Ig 20 nM; read-out: Range or IC50
pIC50: −log10 of the molar value.
The entries below are paired with their reported pIC50.

smiles_entry: CC(=O)N[C@@H]1CCN(CCCOc2cccc(-c3cccc(OCCCN4CC[C@@H](O)C4)c3C)c2C)C1
system_tested: PD-1/PD-L1 interaction (PD-1-Ig / PD-L1-His) (Homo sapiens)
pIC50: 7.16
//
smiles_entry: CC1CCN(C(=O)c2cc(Cl)c(OCc3cccc(-c4cccc(COc5cc(OCc6cncc(C#N)c6)c(C(=O)N6CCC(C)CC6)cc5Cl)c4Cl)c3Cl)cc2OCc2cncc(C#N)c2)CC1
system_tested: PD-1/PD-L1 interaction (PD-1-Ig / PD-L1-His) (Homo sapiens)
pIC50: 6.98
//
smiles_entry: Cc1c(OCCCN2CC(N(C)C)C2)cccc1-c1cccc(OCCCN2CC[C@@H](O)C2)c1C
system_tested: PD-1/PD-L1 interaction (PD-1-Ig / PD-L1-His) (Homo sapiens)
pIC50: 7.00

----------
// pIC50 lookup, one value per entry
biological target: PD-1/PD-L1 interaction (PD-1-Ig / PD-L1-His) (Homo sapiens); construct: hPDL1(18-239)-TVMV-His; TVMV protease site linker (C); made in house; host or cells: HEK293T; test: PD-1/PD-L1 Homogenous Time-Resolved Fluorescence (HTRF) binding assay; details: IC50 range class; PD-L1-His 10 nM, PD-1-Ig 20 nM; read-out: Range or IC50
pIC50: −log10 of the molar value.

compound: Cc1c(COc2cc(OCc3cncc(C#N)c3)c(C(=O)NCc3ccncn3)cc2Cl)cccc1-c1cccc(COc2cc(OCc3cncc(C#N)c3)c(C(=O)NCc3ccncn3)cc2Cl)c1C
pIC50: 6.00 to 7.05

compound: Cc1c(COc2cc(OCc3cncc(C#N)c3)c(CNC(CO)(Cc3ccccc3)C(=O)O)cc2Cl)cccc1-c1cccc(COc2cc(OCc3cncc(C#N)c3)c(CNC(CO)(Cc3ccccc3)C(=O)O)cc2Cl)c1C (stereo not shown)
pIC50: 7.70 to 10.40

compound: Cc1c(COc2cc(OCc3cncc(C#N)c3)c(CN3CCCC(C(=O)O)C3)cc2Cl)cccc1-c1cccc(COc2cc(OCc3cncc(C#N)c3)c(CN3CCCC(C(=O)O)C3)cc2Cl)c1C (stereo not shown)
pIC50: 7.70 to 10.40

compound: Cc1c(OCCCN2CCCCC2)cccc1-c1cccc(OCCCN2CC[C@@H](O)C2)c1C
pIC50: 7.05 to 7.70

----------
target: PD-1/PD-L1 interaction (PD-1-Ig / PD-L1-His) (Homo sapiens, UniProt Q9NZQ7); construct: hPDL1(18-239)-TVMV-His; TVMV protease site linker (C); made in house; host or cells: HEK293T; experiment: PD-1/PD-L1 Homogenous Time-Resolved Fluorescence (HTRF) binding assay; details: IC50 range class; PD-L1-His 10 nM, PD-1-Ig 20 nM; read-out: Range or IC50
Sequence (Q9NZQ7 with tags, fused parts or gaps): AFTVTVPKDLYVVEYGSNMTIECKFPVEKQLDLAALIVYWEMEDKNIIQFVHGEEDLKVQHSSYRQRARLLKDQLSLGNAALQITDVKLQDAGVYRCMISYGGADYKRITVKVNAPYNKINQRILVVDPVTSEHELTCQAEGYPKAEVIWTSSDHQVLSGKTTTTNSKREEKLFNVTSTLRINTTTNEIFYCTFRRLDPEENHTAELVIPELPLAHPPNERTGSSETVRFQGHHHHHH
We begin with a simple list: items and their reported IC50.
readout_kind: IC50

compound: Cc1c(COc2cc(OCc3cc(F)cc(F)c3)c(CNC(CO)CO)cc2Cl)cccc1-c1cccc(COc2cc(OCc3cc(F)cc(F)c3)c(CNC(CO)CO)cc2Cl)c1C
system_tested: PD-1/PD-L1 interaction (PD-1-Ig / PD-L1-His) (Homo sapiens, UniProt Q9NZQ7)
readout_kind: IC50
readout_value: 90.1 to 1000 nM

compound: N#Cc1cncc(COc2cc(OCc3cccc(-c4cccc(COc5cc(OCc6cncc(C#N)c6)c(C(=O)NCCCO)cc5Cl)c4Cl)c3Cl)c(Cl)cc2C(=O)NCCCO)c1
system_tested: PD-1/PD-L1 interaction (PD-1-Ig / PD-L1-His) (Homo sapiens, UniProt Q9NZQ7)
readout_kind: IC50
readout_value: 90.1 to 1000 nM

compound: CSCCC(NCc1cc(Cl)c(OCc2cccc(-c3cccc(COc4cc(OCc5cncc(C#N)c5)c(CNC(CCSC)C(=O)O)cc4Cl)c3C)c2C)cc1OCc1cncc(C#N)c1)C(=O)O (stereo not drawn)
system_tested: PD-1/PD-L1 interaction (PD-1-Ig / PD-L1-His) (Homo sapiens, UniProt Q9NZQ7)
readout_kind: IC50
readout_value: 0.04 to 20 nM

compound: Cc1c(COc2cc(OCc3cc(F)cc(F)c3)c(CN(C)[C@@H](CO)C(=O)O)cc2Cl)cccc1-c1cccc(COc2cc(OCc3cc(F)cc(F)c3)c(CN(C)[C@@H](CO)C(=O)O)cc2Cl)c1C
system_tested: PD-1/PD-L1 interaction (PD-1-Ig / PD-L1-His) (Homo sapiens, UniProt Q9NZQ7)
readout_kind: IC50
readout_value: 20.1 to 90 nM

compound: Cc1c(COc2cc(OCc3cncc(C#N)c3)c(CO)cc2Cl)cccc1-c1cccc(COc2cc(OCc3cncc(C#N)c3)c(CN[C@@H](C(=O)O)[C@@H](C)O)cc2Cl)c1C
system_tested: PD-1/PD-L1 interaction (PD-1-Ig / PD-L1-His) (Homo sapiens, UniProt Q9NZQ7)
readout_kind: IC50
readout_value: 0.04 to 20 nM

compound: Cc1c(OCCCNCC(O)C(C)(C)O)cccc1-c1cccc(OCCCNCC(O)C(C)(C)O)c1C (mixture of isomers)
system_tested: PD-1/PD-L1 interaction (PD-1-Ig / PD-L1-His) (Homo sapiens, UniProt Q9NZQ7)
readout_kind: IC50
readout_value: 0.04 to 20 nM

compound: Cc1c(COc2cc(OCc3cncc(C#N)c3)c(CN3CC[C@@H](O)C3)cc2Cl)cccc1-c1cccc(COc2cc(OCc3cncc(C#N)c3)c(CN3CC[C@@H](O)C3)cc2Cl)c1C
system_tested: PD-1/PD-L1 interaction (PD-1-Ig / PD-L1-His) (Homo sapiens, UniProt Q9NZQ7)
readout_kind: IC50
readout_value: 0.04 to 20 nM

compound: Cc1c(NC(=O)CCN2CC[C@@H](O)C2)cccc1-c1cccc(OCCCN2CC[C@@H](O)C2)c1C
system_tested: PD-1/PD-L1 interaction (PD-1-Ig / PD-L1-His) (Homo sapiens, UniProt Q9NZQ7)
readout_kind: IC50
readout_value: 1000 to 10000 nM

compound: N#Cc1cncc(COc2cc(OCc3cccc(-c4cccc(COc5cc(OCc6cncc(C#N)c6)c(C(=O)NCC6(CO)CC6)cc5Cl)c4Cl)c3Cl)c(Cl)cc2C(=O)NCC2(CO)CC2)c1
system_tested: PD-1/PD-L1 interaction (PD-1-Ig / PD-L1-His) (Homo sapiens, UniProt Q9NZQ7)
readout_kind: IC50
readout_value: 1000 to 10000 nM

compound: Cc1c(COc2cc(OCc3cncc(C#N)c3)c(CO)cc2Cl)cccc1-c1cccc(COc2cc(OCc3cncc(C#N)c3)c(CN[C@@H](C(=O)O)[C@H](C)O)cc2Cl)c1C [Example 50250]
system_tested: PD-1/PD-L1 interaction (PD-1-Ig / PD-L1-His) (Homo sapiens, UniProt Q9NZQ7)
readout_kind: IC50
readout_value: 0.04 to 20 nM

compound: Cc1c(COc2cc(OCc3cncc(C#N)c3)c(CNC/C=C/C(=O)O)cc2Cl)cccc1-c1cccc(COc2cc(OCc3cncc(C#N)c3)c(CNC/C=C/C(=O)O)cc2Cl)c1C
system_tested: PD-1/PD-L1 interaction (PD-1-Ig / PD-L1-His) (Homo sapiens, UniProt Q9NZQ7)
readout_kind: IC50
readout_value: 0.04 to 20 nM

compound: COCC(O)CNCCCOc1cccc(-c2cccc(OCCCNCC(O)COC)c2C)c1C (stereo not drawn)
system_tested: PD-1/PD-L1 interaction (PD-1-Ig / PD-L1-His) (Homo sapiens, UniProt Q9NZQ7)
readout_kind: IC50
readout_value: 0.04 to 20 nM

compound: Cc1c(COc2cc(OCc3cc(F)cc(F)c3)c(CN(C)[C@H](C(=O)O)C(C)C)cc2Cl)cccc1-c1cccc(COc2cc(OCc3cc(F)cc(F)c3)c(CN(C)[C@H](C(=O)O)C(C)C)cc2Cl)c1C
system_tested: PD-1/PD-L1 interaction (PD-1-Ig / PD-L1-His) (Homo sapiens, UniProt Q9NZQ7)
readout_kind: IC50
readout_value: 20.1 to 90 nM

compound: Cc1c(COc2cc(OCc3cncc(C#N)c3)c(CNC(Cc3ccccc3)C(N)=O)cc2Cl)cccc1-c1cccc(COc2cc(OCc3cncc(C#N)c3)c(CNC(Cc3ccccc3)C(N)=O)cc2Cl)c1C (stereo not drawn)
system_tested: PD-1/PD-L1 interaction (PD-1-Ig / PD-L1-His) (Homo sapiens, UniProt Q9NZQ7)
readout_kind: IC50
readout_value: 90.1 to 1000 nM

compound: Cc1c(COc2cc(OCc3cncc(C#N)c3)c(CNC(CCO)C(=O)O)cc2Cl)cccc1-c1cccc(COc2cc(OCc3cncc(C#N)c3)c(CN(CC3CCCO3)C(CCO)C(=O)O)cc2Cl)c1C (stereo not drawn)
system_tested: PD-1/PD-L1 interaction (PD-1-Ig / PD-L1-His) (Homo sapiens, UniProt Q9NZQ7)
readout_kind: IC50
readout_value: 0.04 to 20 nM

compound: Cc1c(OCCCN(CCO)CCO)cccc1-c1cccc(OCCCN2CC[C@@H](O)C2)c1C
system_tested: PD-1/PD-L1 interaction (PD-1-Ig / PD-L1-His) (Homo sapiens, UniProt Q9NZQ7)
readout_kind: IC50
readout_value: 90.1 to 1000 nM

compound: COC[C@H](NCc1cc(Cl)c(OCc2cccc(-c3cccc(COc4cc(OCc5cncc(C#N)c5)c(CN[C@@H](COC)C(=O)O)cc4Cl)c3C)c2C)cc1OCc1cncc(C#N)c1)C(=O)O
system_tested: PD-1/PD-L1 interaction (PD-1-Ig / PD-L1-His) (Homo sapiens, UniProt Q9NZQ7)
readout_kind: IC50
readout_value: 0.04 to 20 nM

compound: Cc1c(COc2cc(OCc3cncc(C#N)c3)c(C(=O)N3CCOCC3)cc2Cl)cccc1-c1cccc(COc2cc(OCc3cncc(C#N)c3)c(C(=O)N3CCOCC3)cc2Cl)c1C
system_tested: PD-1/PD-L1 interaction (PD-1-Ig / PD-L1-His) (Homo sapiens, UniProt Q9NZQ7)
readout_kind: IC50
readout_value: 0.04 to 20 nM
